# measurementTarget: zebrafish Thyroid Hormone Receptor alpha (TRa), thraa (gene 30670) (UniProt Q98867)
# Sequence (Q98867 whole entry, looked up, the tested form may be a part): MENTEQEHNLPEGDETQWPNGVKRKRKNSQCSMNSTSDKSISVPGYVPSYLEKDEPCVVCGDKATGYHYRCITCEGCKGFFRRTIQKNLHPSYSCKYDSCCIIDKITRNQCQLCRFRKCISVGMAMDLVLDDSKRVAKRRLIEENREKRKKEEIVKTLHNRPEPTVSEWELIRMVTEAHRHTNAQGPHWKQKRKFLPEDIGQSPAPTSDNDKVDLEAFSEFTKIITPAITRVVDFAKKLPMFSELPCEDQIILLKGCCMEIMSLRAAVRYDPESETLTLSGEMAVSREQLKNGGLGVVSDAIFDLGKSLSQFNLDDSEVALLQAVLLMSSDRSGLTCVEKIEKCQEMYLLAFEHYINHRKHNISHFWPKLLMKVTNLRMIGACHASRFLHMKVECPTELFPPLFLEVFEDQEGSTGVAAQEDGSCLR
# testDetails: ATG_zfTRa_XSP2: Attagene TRANS-FACTORIAL Multi-Species (XSP1) HepG2 Assay for zebrafish Thyroid Hormone Receptor alpha (TRa) (AID 2283832);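 note: actives raise zebrafish TRa-Gal4 reporter transcript above DMSO baseline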
Records with an inconclusive call do not appear. Activity calls are given as the source filed them. Rule for the calls: active = hit-call score of the fitted dose curve at least 0.9, where 1 is the maximum; inconclusive = response in the unintended direction; inactive = score below 0.9.
Give one outcome, nothing more. List: active, inactive

Consider the following illustrative entries.
{"compound": "CN(C)C(=O)Nc1ccc(Cl)c(Cl)c1", "discreteLabel": "inactive"}
{"compound": "CC(C)(c1ccc(O)cc1)c1ccc(O)cc1", "discreteLabel": "active"}

# input Any idea what this test logged for `CC(C)CCCCCCc1ccc(O)cc1` ?
# output inactive

# input # iterate: `CCN(Cc1c(F)cccc1Cl)c1c([N+](=O)[O-])cc(C(F)(F)F)cc1[N+](=O)[O-]`
# output inactive

# input # iterate: CC1(C)C(C=C(Cl)Cl)C1C(=O)OCc1cccc(Oc2ccccc2)c1 (stereo unspecified)
# output inactive

# input # iterate: `Oc1ccc(C(c2ccc(O)cc2)C(Cl)(Cl)Cl)cc1`
# output inactive

====

# testDetails: BSK_3C_TissueFactor: BioMAP Diversity Plus: 3C Assay for Tissue Factor Biomarker Activity (AID 2282997)
# reportedConditions: BioMAP 3C HUVEC, tissue factor biomarker readout; actives raise or lower the signal
Activity calls are given as the source filed them. Rule for the calls: active = hit-call score of the fitted dose curve at least 0.9, where 1 is the maximum; inactive = score below 0.9.
testReadout: AC50

Worked cases, answers included:
{"molecule": "O=C(c1ccccc1)C1CCCCC1", "AC50": "inactive"}
{"molecule": "O=C(O)c1ccccc1", "AC50": "inactive"}
{"molecule": "C=CCOC(Cn1ccnc1)c1ccc(Cl)cc1Cl (stereo not drawn)", "AC50": "inactive"}
{"molecule": "C#CCOC(=O)[C@@H](C)Oc1ccc(Oc2ncc(Cl)cc2F)cc1", "AC50": "inactive"}
{"molecule": "CCSC(=O)N(CC(C)C)CC(C)C", "AC50": "inactive"}
{"molecule": "CC(C)CCCCCCc1ccc(O)cc1", "AC50": "9.54 µM (active)"}
{"molecule": "CCCCCCC(C)OC(=O)COc1nc(F)c(Cl)c(N)c1Cl (stereo not drawn)", "AC50": "34.4 µM (active)"}
{"molecule": "CC(C)(c1ccc(O)cc1)c1ccc(O)cc1", "AC50": "inactive"}

Turning to the following molecule.
# input Give the measured AC50 of CCC(C)OC(=O)N1CCCCC1CCO (stereo not drawn) .
# output inactive

====

# testDetails: UKN2_HCS_IMR90_cell_viability: Viability Assessment in the University of Konstanz (UKN) Leist Lab Neural Crest Cell Migration Assay in human induced IMR90 Pluripotent Stem Cells (UKN2) (AID 2284233);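 note: viability of neural crest cells differentiated from IMR90 iPSC measured by calcein-AM fluorescence imaging; cells exposed to compound for 24 h after a 24 h migration phase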
The source made the active and inactive calls. Rule for the calls: active = hit-call score of the fitted dose curve at least 0.9, where 1 is the maximum; inactive = score below 0.9.
Give one outcome, nothing more. List: True (active), False (inactive)

# input Any idea what this test logged for `Cc1nn(C)c(Oc2ccccc2)c1C=NOCc1ccc(C(=O)OC(C)(C)C)cc1` ?
# output True

# input # iterate: `S=C([S-])NCCNC(=S)[S-].[Mn+2]`
# output True

# input # iterate: `CCN(CC)C(=O)c1cccc(C)c1`
# output False

# input # iterate: `CCCN(CCC)C(=O)SCC`
# output False

====

# measurementTarget: human Matrix Metalloproteinase-3 (MMP3), MMP3 (gene 4314) (UniProt P08254)
# Sequence (P08254 whole entry, looked up): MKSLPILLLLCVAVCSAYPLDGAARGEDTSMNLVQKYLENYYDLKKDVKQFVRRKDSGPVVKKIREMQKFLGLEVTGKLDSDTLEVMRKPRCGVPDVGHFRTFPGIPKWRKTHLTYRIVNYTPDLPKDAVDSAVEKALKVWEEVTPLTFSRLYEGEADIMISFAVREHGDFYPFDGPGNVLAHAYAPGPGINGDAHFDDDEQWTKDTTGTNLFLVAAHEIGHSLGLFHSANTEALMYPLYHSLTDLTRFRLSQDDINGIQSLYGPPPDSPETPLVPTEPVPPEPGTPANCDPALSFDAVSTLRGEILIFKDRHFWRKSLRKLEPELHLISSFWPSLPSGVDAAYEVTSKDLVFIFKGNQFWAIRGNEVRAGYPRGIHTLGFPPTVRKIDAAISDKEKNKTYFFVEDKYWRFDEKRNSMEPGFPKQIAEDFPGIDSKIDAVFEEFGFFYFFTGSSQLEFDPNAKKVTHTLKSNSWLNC
# testDetails: NVS_ENZ_hMMP3: NovaScreen (NVS) Enzymatic Assay for human Matrix Metalloproteinase-3 (MMP3) (AID 2283185)
Results filed as inconclusive are left out. Activity calls are given as the source filed them. How the source made its calls: active means hit-call score of the fitted dose curve at least 0.9, where 1 is the maximum; inconclusive means response in the unintended direction; inactive means score below 0.9.
Give one outcome, nothing more. List: active, inactive

Consider the following illustrative entries.
{"compound": "CCCCOC(=O)[C@@H](C)Oc1ccc(Oc2ccc(C(F)(F)F)cn2)cc1", "discreteLabel": "inactive"}
{"compound": "CC(C)(c1ccc(O)cc1)c1ccc(O)cc1", "discreteLabel": "inactive"}
{"compound": "C[C@]12CC[C@@H]3c4ccc(O)cc4C[C@@H](CCCCCCCCCS(=O)CCCC(F)(F)C(F)(F)F)[C@H]3[C@@H]1CC[C@@H]2O (stereo partly drawn)", "discreteLabel": "inactive"}
{"compound": "S=C(S)NCCNC(=S)S.[Mn+2].[S-]C([S-])=NCCN=C([S-])[S-].[Zn+2]", "discreteLabel": "active"}
{"compound": "CN(C)C(=O)Nc1ccc(Cl)c(Cl)c1", "discreteLabel": "inactive"}
{"compound": "CCCOC(=O)NCCCN(C)C", "discreteLabel": "inactive"}

# input Any idea what this test logged for `O=C(O)C1(C(=O)Nc2ccc(Cl)cc2Cl)CC1` ?
# output inactive

# input # iterate: `C[C@]12C[C@H](O)[C@H]3[C@@H](CCC4=CC(=O)CC[C@@]43C)[C@@H]1CC[C@@H]2C(=O)CO`
# output inactive

====

# Read-out: C-C motif chemokine 2 (Homo sapiens) (UniProt P13500)
# testDetails: BSK_KF3CT_MCP1: BioMAP Diversity Plus: KF3CT Assay for Monocyte Chemoattractant Protein 1 (MCP1/CCL2) Biomarker Activity (AID 2283073)
# reportedConditions: primary human keratinocytes with fibroblasts; actives raise or lower the signal
Calls of active or inactive are those of the source. Rule for the calls: active = hit-call score of the fitted dose curve at least 0.9, where 1 is the maximum; inactive = score below 0.9.
Give one outcome, nothing more. List: active, inactive

{"compound": "CCCCC(CC)COC(=O)c1ccccc1C(=O)O (stereo unspecified)", "discreteLabel": "inactive"}
{"compound": "S=C([S-])NCCNC(=S)[S-].[Mn+2]", "discreteLabel": "inactive"}

# input Any idea what this test logged for `COC(=O)c1ccccc1C(=O)O` ?
# output active

# input # iterate: C[C@]12CC[C@@H]3c4ccc(O)cc4C[C@@H](CCCCCCCCCS(=O)CCCC(F)(F)C(F)(F)F)[C@H]3[C@@H]1CC[C@@H]2O (stereo partly specified)
# output inactive

# input # iterate: `OB(O)O`
# output inactive

# input # iterate: `CC(=O)S[C@@H]1CC2=CC(=O)CC[C@]2(C)[C@H]2CC[C@@]3(C)[C@@H](CC[C@@]34CCC(=O)O4)[C@H]12`
# output inactive

# input # iterate: `CSC(=O)c1cccc2nnsc12`
# output inactive

# input # iterate: `CC(C)(C)[C@@H](O)[C@@H](Cc1ccc(Cl)cc1)n1cncn1`
# output inactive

# input # iterate: `CCCCOCCOCCOCc1cc2c(cc1CCC)OCO2`
# output inactive

# input # iterate: `O=C(c1ccc(O)cc1O)c1ccc(O)cc1O`
# output inactive

# input # iterate: `CCOC(=O)COc1cc(-n2ncc(C(F)(F)F)c(C)c2=O)c(F)cc1Cl`
# output inactive

====

# testDetails: BSK_3C_Vis: BioMAP Diversity Plus: 3C Assay for Morphology Visualization (AID 2283025);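 note: fitted both ways so gain or loss versus DMSO counts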
# reportedConditions: primary human endothelial cells (HUVEC)
# Procedure: BSK_3C is a cell-based, multiplexed-readout assay that uses umbilical vein endothelium, a human vascular primary cell, with measurements taken at 24 hours after chemical dosing in a 96-well plate.BSK_3C_Vis is an assay component measured in the BSK_3C assay. It measures NA related to cell morphology using light microscopy technology.Data from the assay component BSK_3C_Vis was analyzed into 1 assay endpoint. […]
Activity calls are given as the source filed them. The calls were made as follows: active = hit-call score of the fitted dose curve at least 0.9, where 1 is the maximum; inactive = score below 0.9.
Give one outcome, nothing more. List: Yes (active), No (inactive)

Consider the following illustrative entries.
{"compound": "CCCN(CCC)c1c([N+](=O)[O-])cc(C(F)(F)F)c(N)c1[N+](=O)[O-]", "discreteLabel": "Yes"}
{"compound": "CCCCOC(=O)C(C)Oc1ccc(Oc2ccc(C(F)(F)F)cn2)cc1 (stereo not given)", "discreteLabel": "No"}
{"compound": "COC(=O)c1ccccc1S(=O)(=O)NC(=O)Nc1nc(OC(F)F)cc(OC(F)F)n1", "discreteLabel": "No"}
{"compound": "COc1c(Cl)ccc(Cl)c1C(=O)O", "discreteLabel": "No"}

We now examine a further compound.
# input Any idea what this test logged for `Cc1nn(C)c(Oc2ccccc2)c1C=NOCc1ccc(C(=O)OC(C)(C)C)cc1` ?
# output Yes

====

# testDetails: CEETOX_H295R_11DCORT: CeeTox H295R High-throughput Steroidogenesis Assay for 11-Deoxycortisol (11DCORT) (AID 2283432);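 for AC50: human adrenal H295R cells prestimulated with 10 µM forskolin for 48 h; 11-deoxycortisol secreted into the medium measured by LC-MS/MS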
# reportedConditions: actives raise or lower the signal
The source made the active and inactive calls. How the source made its calls: active means hit-call score of the fitted dose curve at least 0.9, where 1 is the maximum; inactive means score below 0.9.
testReadout: AC50

{"smilesStructure": "S=C(S)NCCNC(=S)S.[Mn+2].[S-]C([S-])=NCCN=C([S-])[S-].[Zn+2]", "AC50": "inactive"}
{"smilesStructure": "C[C@]12C[C@H](O)[C@H]3[C@@H](CCC4=CC(=O)CC[C@@]43C)[C@@H]1CC[C@@H]2C(=O)CO", "AC50": "34.4 µM (active)"}
{"smilesStructure": "S=C([S-])NCCNC(=S)[S-].[Mn+2]", "AC50": "inactive"}
{"smilesStructure": "CCCN(CCC)C(=O)SCC", "AC50": "inactive"}
{"smilesStructure": "CSC(=O)c1cccc2nnsc12", "AC50": "inactive"}

Turning to the following compound.
# input Give the measured AC50 of `CN(C)C(=O)Nc1ccc(Cl)c(Cl)c1` .
# output inactive
